# Test system: LOX IMVI melanoma
# assay: NCI-60 one-dose screen, 48 h
# condition.notes: 10 µM unless noted
The panel holds about 83,000 compounds, 20% with a hit somewhere; the sample as a whole holds those more often. Active and inactive are the calls of the source. Rule for the calls: active = growth percent below 10; inactive = the rest.
Hi there, use one of these labels in your reply, thanks! active, inactive

State the result this test recorded for CN(C)CCCOc1ccc(C(=C(c2ccccc2)C2CCCC2)c2ccc(OCCCN(C)C)cc2)cc1 .
active

Hi team, can someone confirm the assay call for CN1CCN(Cc2ccc(NC(=O)c3cncc(C#Cc4cnc5ccc(OCC(F)F)nn45)c3)cc2C(F)(F)F)CC1 ?
active

// param item: CCCCCN1C(=O)/C(=c2\sc3n(c2=O)C2C(NN=3)N(CC)C(=O)N2CC)c2cccc(C)c21 (stereo not drawn) ; yields the recorded call
inactive

---

# Tested on: RPMI-8226 leukemia
# assay: NCI-60 one-dose screen, 48 h (100 = growth as untreated, 0 = no growth, -100 = all killed)
# condition.notes: 10 µM unless noted
The panel holds about 83,000 compounds, 20% with a hit somewhere; the sample as a whole holds those more often.
// NB: equality with 50% counts as n; only growth strictly below is y

See these solved cases before continuing.
> print(dat)
                               query.smiles  assigned.label
1  N#C/C(=C\c1cccc2c1OCO2)C(=O)Nc1sc2c(c1C#N)CCCC2               n
2  N#Cc1c(-c2ccc(Br)cc2)cc(-c2c[nH]c3ccccc23)nc1N               y
3  COc1ccc(-c2cc(-c3ccc(N(C)C)cc3)n3c(n2)nc2ccccc23)cc1               y
4  Cn1ncc2ncc(-c3ccc4ncc(C#N)c(N5CCc6cc(F)c(Cl)cc65)c4c3)cc21               y

In the record for CCOC(=O)c1cccc(NC2=C(Cl)C(=O)c3nc(C)ccc3C2=O)c1 , is growth less than 50%?
n

---

# System: HOP-62 NSCLC
# assay: NCI-60 one-dose screen, 48 h
# condition.notes: 10 µM unless noted
The panel holds about 83,000 compounds, 20% with a hit somewhere; the sample as a whole holds those more often. The source made the active and inactive calls. The calls were made as follows: active = growth percent below 10; inactive = the rest.
Pick from active, inactive when you respond.

Some entries whose results are on file:
> print(dat)
                                   compound  assigned.label
1  Brc1cc(-c2cc(-c3ccc4c(c3)OC=CO4)[nH]n2)cs1        inactive
2  Cc1ccc2c(n1)C(=O)C(Cl)=C(Nc1ccc(C)c(C)c1)C2=O        inactive
3  COc1ccc2c(c1)c(/C=N/Nc1ccnc3cc(Cl)ccc13)cn2C          active
4  Cc1[nH]c(C(=O)Nc2ccccc2OCc2cccc(C(=O)NCCN)c2)cc1Cl        inactive
5  NC(N)=NS(=O)(=O)c1ccc(N=Nc2c(N)nn(-c3ccc([N+](=O)[O-])cc3[N+](=O)[O-])c2N)cc1        inactive

Hi, do you know how C=C(C)[C@@H]1CC[C@]2(COCCCNCCCN)CC[C@]3(C)[C@H](CC[C@@H]4[C@@]5(C)CC[C@H](O)C(C)(C)[C@@H]5CC[C@]43C)[C@@H]12 came out in this test?
active

What did this assay record as the result for CCN(CC)c1ccc(/C=N/NC(=O)c2ccc(S(N)(=O)=O)cc2)c(O)c1 ?
inactive

Recorded call for O=C(COc1ccc(/C=C2\C(=O)Nc3cc(Cl)ccc32)cc1)Nc1ccc(Cl)cc1 ?
inactive

I'd appreciate the recorded outcome for CN1CCN(CCNc2nc(-c3cccc(NS(=O)(=O)c4cccc5c(N(C)C)cccc45)c3)cs2)CC1 from this test.
inactive

Recorded test call requested for Cn1ncc2c(C(=O)c3ccc(F)cc3)nc(C(C)(C)C)nc21
inactive

Recorded call for CCCCSC1=C(Cl)CN(c2ccc(Cl)cc2)C1=O ?
inactive

GET /call?item= Cc1ccc(C(=O)Nc2ccc(CNCCN3CCOCC3)c(C(F)(F)F)c2)cc1C#Cc1cnc2cccnn12 returns the recorded outcome of this test.
inactive

GET /call?item= CC/C(=C(/c1ccc(Cl)cc1)c1ccc(OCCN)cc1)c1ccccc1 returns the recorded outcome of this test.
inactive

Per the assay record, what outcome was assigned to CC1CCN(CC(=O)Nn2c(COc3ccccc3)nc3ccccc3c2=O)CC1 ?
inactive

For O=C(CSc1nc2ccccc2c(=O)n1-c1ccc(Cl)cc1)N/N=C/c1ccc(Oc2ccc(Cl)cc2)cc1 , which call appears in the assay record?
inactive

---

# System: U251 CNS
# assay: NCI-60 one-dose screen, 48 h (100 = growth as untreated, 0 = no growth, -100 = all killed)
# condition.notes: 10 µM unless noted
The panel holds about 83,000 compounds, 20% with a hit somewhere; the sample as a whole holds those more often.
measurement.label: growth (%)
Express the result in % but write the number alone.

Some entries whose results are on file:
query.smiles	unit.descriptor	growth
O=C(CSc1cc[n+](CCCCO)c2ccccc12)n1ccc2ccccc21	%	96.3
CCn1c2ccc(/C=N/N(C)S(=O)(=O)CCN(C)C)cc2c2cc(/C=N/N(C)S(=O)(=O)CCN(C)C)ccc21	%	64.8
Cc1ccsc1[C@H]1c2[nH]c3ccccc3c2C[C@H]2C(=O)N(CCCCCCC(=O)NO)CC(=O)N12	%	83.8

Can you look up the measured growth of Cc1ccc(NC(=O)Nc2nc3ccc([N+](=O)[O-])cc3s2)cc1 for me?
4.96

For Cc1ccc(-c2nc(SCC(=O)c3ccccc3)nc(Nc3ccc(S(N)(=O)=O)cc3)c2C#N)cc1 , what is its reported growth?
47.4

Could you share which growth value was measured for CCCCc1nc2c(N)nc3ccccc3c2n1Cc1cccc(CN)c1 ?
38.5

// returns reported growth for input O=C(/C=C/c1ccccc1)c1cccc(O)c1
91.2

Quick one: growth for N#CC1=C2NCCCNc3oc(nc3C#N)Cc3ccccc3CC(=N1)O2 ?
96.1

Look at this compound and give its reported growth. Cc1[nH]c(C(=O)Nc2ccc(S(=O)(=O)N3CCCCC3)cc2OCCOCCOCCOCCOCCOCCOCCOCCOCCOc2cc(S(=O)(=O)N3CCCCC3)ccc2NC(=O)c2[nH]c(C)c3c2CCCCC3=O)c2c1C(=O)CCCC2
24.3

Please give the measured growth for this compound: COc1cccc2c1[C@H](OC)[C@]13O[C@@]1(C2=O)[C@H](O)[C@H](C)[C@@](O)(C(=O)[C@@H]1O[C@H]1C)[C@@H]3O
-13.3

State the recorded growth for this entry: C#C[C@]1(O)CC[C@H]2[C@@H]3CC=C4c5sc(Nc6cccc(F)c6)nc5CC[C@]4(C)[C@H]3CC[C@@]21C
10

Request the reported growth associated with COc1ccc(/C(=N\NC(N)=S)c2ccc(Cl)cc2)cc1OC
22.4

So what's the measured growth for this one? COc1ccc2[nH]cc(/C=N/Nc3ccnc4cc(Cl)ccc34)c2c1
-83.3

Can you look up the measured growth of Clc1ccc2[nH]cc(-c3cncn3CCc3ccc4c(c3)OCO4)c2c1 for me?
69.9

Look up growth for this compound: CNC(=O)c1cc(N2CCc3cc(NC(=O)Nc4ccc(N5CCN(C)CC5)c(C(F)(F)F)c4)ccc32)ccn1
52.7

# query: growth of entry CC1(C)C=Cc2cc(/C(N)=N/C(N)=N/c3nc4ccccc4s3)ccc2O1
89.8

Which growth is reported for this compound? C#C[C@]1(O)CC[C@H]2[C@@H]3CC=C4c5sc(NCc6ccccc6)nc5CC[C@]4(C)[C@H]3CC[C@@]21C
23.4

Value lookup for growth; key = COc1ccc(N2CCN(C3=C(Cl)C(=O)c4ncccc4C3=O)CC2)cc1
90.9

I would be grateful if you could share the reported growth for Cc1cc(NS(=O)(=O)c2ccc(NC(=O)CSc3nc4ccccc4c(=O)n3-c3ccccc3)cc2)no1 .
100

Requested read-out: growth. Entry: COc1ccc2c(c1)c(-c1nn3cc(-c4ccncc4)nc3s1)cn2C
83

May I ask what growth has been recorded for CCCCSC1=C(Cl)CN(c2ccccc2)C1=O ?
99.6

Recorded growth of Cc1cc(=O)[nH]c(O)c1C#N , please.
100

Which value of growth has been reported for Cc1ccc(-c2csc(N/N=C/c3cccs3)n2)cc1 in the records?
85.8

---

# Tested on: SK-MEL-5 melanoma
# assay: NCI-60 one-dose screen, 48 h
# condition.notes: 10 µM unless noted
The panel holds about 83,000 compounds, 20% with a hit somewhere; the sample as a whole holds those more often. Active and inactive are the calls of the source. How the source made its calls: active means growth percent below 10; inactive means the rest.
Hello, when you answer, please use one of the following outcomes: label 1 (active), label 0 (inactive)

> print(dat)
                               query.smiles  assigned.label
1  Cc1ccc(CSC2=C(Cl)CN(c3ccc(Cl)cc3)C2=O)cc1         label 0

Which outcome was assigned to CN1CCN(Cc2ccc(NC(=O)c3cncc(C#Cc4cnc5ccc(OCC6COC6)nn45)c3)cc2C(F)(F)F)CC1 in this test?
label 1

Entry O=C(CCCCCCNC(=O)C(O)(O)C(F)(F)F)Nc1nc2ccccc2s1 : call = ?
label 1

Check the results log: what was the call for CNC(=O)c1cc(Oc2ccc3c(c2)sc2nc(-c4ccc(N(C)C)cc4)cn23)ccn1 ?
label 0

Data origin, for the record: PubChem BioAssay (NCI)
